Taken from ChEMBL document CHEMBL1123301.

Method description: Binding affinity towards alpha-chymotrypsin from bovine pancreas
Parameters: species or system Bos taurus
Assay metric: Ki (µM)

{"Mol": "O=c1occcc1-c1ccccc1", "Numeric value": 160}
